Tested on: UO-31 renal
Test: NCI-60 one-dose screen, 48 h (100 = growth as untreated, 0 = no growth, -100 = all killed)
Settings: 10 µM unless noted
About 83,000 compounds went through this panel and 20% of them were active in at least one assay; those are over-represented in the sample as a whole.
Listed here: items and their measured growth.
Supply the numeric figure in %, leaving out any unit text.

compound=CN1CCN(Cc2ccc(NC(=O)c3cncc(C#Cc4cncn5ccnc45)c3)cc2C(F)(F)F)CC1 measurement_target="UO-31 renal" measurement_units=% value=44
compound=Cc1cn2c(/C=C3/C(=O)Nc4c3ccc3ccccc43)c(C(F)(F)F)nc2s1 measurement_target="UO-31 renal" measurement_units=% value=34.7
compound=CSc1nc(NCCN2CCOCC2)c(C#N)c(-c2cccc([N+](=O)[O-])c2)n1 measurement_target="UO-31 renal" measurement_units=% value=82.5
compound=O=C1C=C(O)C(=O)C(CC2=C(O)C(=O)C=C(O)C2=O)=C1O measurement_target="UO-31 renal" measurement_units=% value=94.6
compound="c1csc(C2=NN3C(C2)c2ccccc2OC3c2ccncc2)c1 (centres undefined)" measurement_target="UO-31 renal" measurement_units=% value=64.5
compound=CN(C)S(=O)(=O)c1cccc(-c2nc3sc4c(c3c(=O)[nH]2)CCCC4)c1 measurement_target="UO-31 renal" measurement_units=% value=29.6
compound=O=C1c2ccccc2C(=O)c2c(N=Nc3[nH]c(=S)[nH]c3O)cccc21 measurement_target="UO-31 renal" measurement_units=% value=26.9
compound="CN(CCCCCl)P(=O)(OCc1ccc([N+](=O)[O-])o1)C(F)(F)c1ccc(CC(=O)NC[C@@H](O)/C=C\\[C@@H](O)[C@H](CO)Cc2ccccc2)cc1 (some centres undefined)" measurement_target="UO-31 renal" measurement_units=% value=88.9

Next item in the queue.
Incoming: growth lookup needed for O=C(COc1cccc(/C=C2\CSc3ccccc3C2=O)c1)Nc1nccs1 , thanks.
Outgoing: 60.1

====

Tested on: OVCAR-8 ovarian
Test: NCI-60 one-dose screen, 48 h (100 = growth as untreated, 0 = no growth, -100 = all killed)
Conditions: 10 µM unless noted
About 83,000 compounds went through this panel and 20% of them were active in at least one assay; those are over-represented in the sample as a whole. The source made the active and inactive calls. The calls were made as follows: active = growth percent below 10; inactive = the rest.
Quantity Name: growth

Check out these entries, answers already filled in.
compound=CCCOc1ccc2nc(NC(=O)OC)[nH]c2c1 value="3.91% (active)"
compound=COc1ccc(/C=C(\C#N)C(=O)Nc2cccc(Nc3nc(SC)nc(-c4cccc([N+](=O)[O-])c4)c3C#N)c2)cc1OC value="102% (inactive)"
compound=COc1cccc(/C=N/NC(=O)c2ccccc2Nc2ccnc(C(F)(F)F)c2)c1O value="19.7% (inactive)"

Next item in the queue.
Incoming: growth lookup needed for Cc1ccc2oc(=O)cc(C3c4ccc([nH]4)C(c4cc(=O)oc5ccc(C)cc45)c4ccc([nH]4)C(c4cc(=O)oc5ccc(C)cc45)c4ccc([nH]4)C(c4cc(=O)oc5ccc(C)cc45)c4ccc3[nH]4)c2c1 (centres undefined) , thanks.
Outgoing: -47.8% (active)

====

Listed here: items and their measured growth.
Test system: PC-3 prostate
Experiment: NCI-60 one-dose screen, 48 h (100 = growth as untreated, 0 = no growth, -100 = all killed)
Settings: 10 µM unless noted
About 83,000 compounds went through this panel and 20% of them were active in at least one assay; those are over-represented in the sample as a whole. Activity calls are given as the source filed them. Rule for the calls: active = growth percent below 10; inactive = the rest.

Check out these entries, answers already filled in.
compound="CC(=O)NCC1c2c(n(C)c3c(Cl)c(Cl)ccc23)C(=O)NC1(C)C (stereo not drawn)" value="91% (inactive)"
compound=COc1cc2c(cc1O)CC[C@@H]1[C@@H]2CC[C@]2(C)[C@@H](NCCN(C)C)CC[C@@H]12 value="-91.2% (active)"
compound=COc1cccc(-c2nc(SCC(=O)Nc3ccc(C(=O)/C=C/c4ccc(OC)c(OC)c4)cc3)[nH]c(=O)c2C#N)c1 value="100% (inactive)"
compound=CSc1nc(NCc2ccccc2)c(C#N)c(-c2cccc([N+](=O)[O-])c2)n1 value="94.5% (inactive)"
compound="CC(C)CC1C(=O)N2CCC[C@H]2C2(O)O[C@](NC(=O)C3C=C4c5cccc6[nH]c(Br)c(c56)C[C@H]4N(C)C3)(C(C)C)C(=O)N12 (stereo partly drawn)" value="20.4% (inactive)"

Next item in the queue.
Incoming: growth lookup needed for CCC([N+](=O)[O-])S(=O)(=O)c1ccc(C)cc1 (stereo not drawn) , thanks.
Outgoing: 101% (inactive)

====

Tested on: A549/ATCC NSCLC
Experiment: NCI-60 one-dose screen, 48 h
Details: 10 µM unless noted
Protocol: Growth inhibition of the A549/ATCC human Non-Small Cell Lung tumor cell line is measured as a screen for anti-cancer activity. Cells are grown in 96 well plates and exposed to the test compound for 48 hours. Compounds are tested at a single concentration, which is 10^-5 M for most compounds. The reported endpoint is percent growth (GI% or GIPRCNT), where numbers from 0 - 100% represent growth inhibition, and numbers from -100% - 0 represent cell death. […]
Compounds without any hit were thinned out: in the full panel of roughly 83,000, 20% have a hit. Active and inactive are the calls of the source. Rule for the calls: active = growth percent below 10; inactive = the rest.
// allowed return values: active, inactive

Illustrative cases are given below, each with its answer.
compound=COC(=O)[C@@H]1CCCN1C(=O)[C@@H]1CCCN1C(=O)[C@H](Cc1ccccc1)NC(=S)Nc1cc(C(F)(F)F)cc(C(F)(F)F)c1 measurement_target="A549/ATCC NSCLC" classification=inactive
compound=CCN(CC)CCCCNc1c2ccc(Cl)cc2nc2ccc(OC)cc12 measurement_target="A549/ATCC NSCLC" classification=active

In the following, a different compound is considered.
Incoming: Which outcome did this test record for the compound COc1cc(C(=O)Oc2ccccc2OC(=O)c2cc(OC)c(OC)c(OC)c2)cc(OC)c1OC ?
Outgoing: inactive

====

Listed here: items and their measured growth.
Tested on: CAKI-1 renal
Test: NCI-60 one-dose screen, 48 h (100 = growth as untreated, 0 = no growth, -100 = all killed)
Settings: 10 µM unless noted
This is part of a sample that, as a whole, favours compounds with a hit. Of some 83,000 tested, about 20% had one in any assay.
Supply the numeric figure in %, leaving out any unit text.

Check out these entries, answers already filled in.
compound=O=C(COc1ccc(-c2nc3cc(Cl)c(Cl)cc3[nH]2)cc1)N=Nc1c(O)[nH]c2ccccc12 measurement_units=% value=38.5
compound=COc1cc2c(cc1-c1c(C)noc1C)ncc1nc(C3CCCC3)n([C@H](C)COC(F)F)c12 measurement_units=% value=18.7
compound=COc1ccc(C(=O)/C=C/c2cccnc2Nc2cc(OC)c(OC)c(OC)c2)cc1 measurement_units=% value=32.2

Incoming: growth lookup needed for Cc1nn(-c2cc(=O)[nH]c3ccc(Cl)cc23)c(N)c1C#N , thanks.
Outgoing: 85.8

Incoming: Note, next up: Cn1cc(-c2nonc2-c2c[nH]c3ccc(F)cc23)c2cccnc21
Outgoing: 63.9

Incoming: Note, next up: COc1cccc(-c2nn(C(C)(C)C)cc2-c2ccnc(NCCCNS(=O)(=O)c3ccc(C)cc3)c2)c1
Outgoing: 92.8

Incoming: Note, next up: COc1ccc(S(=O)(=O)N2CC3(COC3)C2)cc1NC(=O)c1[nH]c(C)c2c1CCCCC2=O
Outgoing: 20

Incoming: Note, next up: CC(C)n1c(/C=C/[C@@H](O)C[C@@H](O)CC(=O)O)c(-c2ccc(F)cc2)c2ccccc21
Outgoing: -42.9

Incoming: Note, next up: CCCn1c(=O)[nH]c(N)c([C@H]2c3ccccc3Oc3[nH]c(=O)n(CCC)c(=O)c32)c1=O
Outgoing: 86.1

Incoming: Note, next up: CCOC(=O)c1csc(NC(=O)COc2cccc(/C=C3\CSc4ccccc4C3=O)c2)n1
Outgoing: 2.32

Incoming: Note, next up: CCOc1ccc(-n2nc(C(=O)Nc3cc(OC)c(OC)c(OC)c3)nc2-c2cc(OC)c(OC)c(OC)c2)cc1
Outgoing: 77.4

Incoming: Note, next up: COc1cc2c(cc1-c1c(C)noc1C)ncc1nc(C3CCCCC3)n([C@H](C)COC(F)F)c12
Outgoing: 29.2

====

Test system: A549/ATCC NSCLC
Experiment: NCI-60 one-dose screen, 48 h (100 = growth as untreated, 0 = no growth, -100 = all killed)
Conditions: 10 µM unless noted
The panel holds about 83,000 compounds, 20% with a hit somewhere; the sample as a whole holds those more often.
Strictly below 30% in growth: fulfilled. Otherwise: not fulfilled.

Illustrative cases are given below, each with its answer.
entry_smiles=CC1=C[C@H]2c3c(c(O)c(O)c4oc5c(C)cccc5c(=O)c34)[C@H](c3cc(O)c(O)c4oc5c(C)cccc5c(=O)c34)[C@H]2C(C)(C)C1 classification=fulfilled
entry_smiles=CCC(=O)c1ccc(Cl)s1 classification="not fulfilled"
entry_smiles=Cc1nc2ccccc2n1C(=O)C[C@@H]1NC(=S)NC1=O classification="not fulfilled"
entry_smiles=N#CCCN=Nc1c(O)[nH]c2ccc(F)cc12 classification="not fulfilled"
entry_smiles=COc1ccc(/C=C/C(=O)c2ccc(O)c(CN3CCN(c4cc5c(cc4F)c(=O)c(C(=O)O)cn5C4CC4)CC3)c2)cc1 classification=fulfilled
entry_smiles=Nc1nc2ccc3[nH]ncc3c2c2c1CCCC2 classification=fulfilled

In the following, a different compound is considered.
Incoming: Please indicate whether the reported growth of COc1ccc(CCNc2nc3c(c(=O)n(Cc4ccc(Br)cc4)c(=O)n3C)n2C)cc1OC is strictly below 30%.
Outgoing: not fulfilled

Source of measurements: PubChem BioAssay (NCI)
